# system-name: DNA topoisomerase 2-alpha (Homo sapiens, UniProt P11388)
# Sequence (P11388 whole entry): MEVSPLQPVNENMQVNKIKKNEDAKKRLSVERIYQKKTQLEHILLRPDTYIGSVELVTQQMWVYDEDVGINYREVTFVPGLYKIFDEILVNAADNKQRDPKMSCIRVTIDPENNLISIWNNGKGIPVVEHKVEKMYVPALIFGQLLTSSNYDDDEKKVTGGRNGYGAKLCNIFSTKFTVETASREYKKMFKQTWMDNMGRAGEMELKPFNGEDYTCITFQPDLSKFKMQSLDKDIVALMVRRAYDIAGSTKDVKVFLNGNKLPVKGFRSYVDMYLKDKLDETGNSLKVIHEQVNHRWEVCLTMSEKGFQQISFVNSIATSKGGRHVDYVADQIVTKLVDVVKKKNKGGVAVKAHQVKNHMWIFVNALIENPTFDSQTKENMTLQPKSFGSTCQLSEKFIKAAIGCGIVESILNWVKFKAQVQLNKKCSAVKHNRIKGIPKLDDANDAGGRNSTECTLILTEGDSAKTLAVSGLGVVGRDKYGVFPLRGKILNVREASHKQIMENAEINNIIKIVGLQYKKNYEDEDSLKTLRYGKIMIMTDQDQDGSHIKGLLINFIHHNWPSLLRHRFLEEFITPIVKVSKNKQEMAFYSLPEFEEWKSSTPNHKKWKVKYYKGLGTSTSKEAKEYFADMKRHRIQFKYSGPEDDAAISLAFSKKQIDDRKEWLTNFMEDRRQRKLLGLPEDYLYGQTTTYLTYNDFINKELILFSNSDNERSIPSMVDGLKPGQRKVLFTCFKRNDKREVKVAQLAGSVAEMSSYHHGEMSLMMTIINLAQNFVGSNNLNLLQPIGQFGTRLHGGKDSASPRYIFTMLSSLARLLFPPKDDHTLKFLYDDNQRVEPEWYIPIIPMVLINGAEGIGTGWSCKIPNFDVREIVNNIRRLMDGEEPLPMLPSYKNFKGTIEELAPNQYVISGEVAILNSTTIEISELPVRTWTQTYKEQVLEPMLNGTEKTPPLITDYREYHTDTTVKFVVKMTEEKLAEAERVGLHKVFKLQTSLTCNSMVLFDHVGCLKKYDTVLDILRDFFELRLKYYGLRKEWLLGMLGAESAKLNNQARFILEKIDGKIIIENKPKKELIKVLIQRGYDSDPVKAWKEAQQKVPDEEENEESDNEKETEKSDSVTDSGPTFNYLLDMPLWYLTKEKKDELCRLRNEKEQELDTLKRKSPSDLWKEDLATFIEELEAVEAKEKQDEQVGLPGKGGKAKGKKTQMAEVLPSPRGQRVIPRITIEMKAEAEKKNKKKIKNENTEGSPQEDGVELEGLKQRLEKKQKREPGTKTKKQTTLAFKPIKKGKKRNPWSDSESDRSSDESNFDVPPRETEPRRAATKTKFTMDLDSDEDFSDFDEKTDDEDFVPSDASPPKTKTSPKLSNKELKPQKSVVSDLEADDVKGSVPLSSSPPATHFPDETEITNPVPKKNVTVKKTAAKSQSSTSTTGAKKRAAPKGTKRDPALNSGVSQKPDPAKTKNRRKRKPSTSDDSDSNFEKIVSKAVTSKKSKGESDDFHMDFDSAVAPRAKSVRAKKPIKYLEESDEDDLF
assay-metric: IC50

**Query** Would you mind telling me what IC50 value was observed for C[C@@]1(C(=O)O)CC[C@]2(C)CC[C@]3(C)C4=CC(=O)c5c(cc(O)c(O)c5C(=O)O)[C@]4(C)CC[C@@]3(C)[C@@H]2C1 ?
**Result** 17.6 µM

----------
# system-name: DNA topoisomerase 2-alpha (Homo sapiens, UniProt P11388)
# method-notes: Inhibition of human topoisomerase 2 p170alpha assessed as relaxation of lambda ZAPII plasmid Bluescript KS+ DNA at 100 uM by SDS electrophoresis
Calls of active or inactive are those of the source. The calls are words filed in the database; no cut-off is given here.
Could you please pick one outcome from this set? y (active), n (inactive)

The following compounds have reported results that may help.
COc1cc([C@@H]2c3cc4c(cc3[C@@H](O[C@@H]3O[C@@H]5CO[C@@H](C)O[C@H]5[C@H](O)[C@H]3O)[C@H]3COC(=O)[C@H]23)OCO4)cc(OC)c1O    n
C[C@@]1(C(=O)O)CC[C@]2(C)CC[C@]3(C)C4=CC(=O)c5c(cc(O)c(O)c5C(=O)O)[C@]4(C)CC[C@@]3(C)[C@@H]2C1    y
COC(=O)[C@]1(C)CC[C@]2(C)CC[C@]3(C)C4=CCc5c(cc(O)c(O)c5C)[C@]4(C)CC[C@@]3(C)[C@@H]2C1    n
COC(=O)[C@]1(C)CC[C@]2(C)CC[C@]3(C)C4=CC(=O)c5c(cc(O)c(O)c5C(=O)O)[C@]4(C)CC[C@@]3(C)[C@@H]2C1    n

Switching to the query record.
**Query** Recorded test call requested for COC(=O)[C@]1(C)CC[C@]2(C)CC[C@]3(C)C4=CC(=O)c5c(cc(O)c(O)c5C=O)[C@]4(C)CC[C@@]3(C)[C@@H]2C1
**Result** n

----------
# Tested on: MCF7
# method-notes: Cytotoxicity against human MCF7 cells after 48 hrs by MTT assay
# Type: functional, cell-based
# study-conditions: MCF7, 48 h
assay-metric: IC50 (µM)
Give bare numbers, in µM.

**Query** Would you mind telling me what IC50 value was observed for C[C@@]1(C(=O)O)CC[C@]2(C)CC[C@]3(C)C4=CC(=O)c5c(cc(O)c(O)c5C(=O)O)[C@]4(C)CC[C@@]3(C)[C@@H]2C1 ?
**Result** 12.5

----------
# System: Saccharomyces cerevisiae
# method-notes: DNA damaging activity against topoisomerase 2-deficient RS321N mutant yeast assessed as drug level required to produce 12 mm zone of inhibition by agar well diffusion assay
# Format: functional
assay-metric: IC12 (concentration giving a 12 mm inhibition zone) (µg/mL)
Numbers only, in µg/mL.

Reference set (2 entries):
CC1=C2C3=CC=C4C(=CC(=O)C(O)=C4C)[C@]3(C)CC[C@@]2(C)[C@@H]2C[C@@H](C)[C@@H](O)C(=O)C2C1 (stereo not given in full) [BALAENONOL]    220
CC1=C(O)C(=O)C=C2C1=CC=C1[C@@]2(C)CC[C@@]2(C)[C@@H]3C[C@](C)(O)C(=O)C[C@]3(C)CC[C@]12C [20ALPHA-HYDROXYTINGENONE]    185

Kindly review the next molecule as well.
**Query** Would you mind telling me what IC12 (concentration giving a 12 mm inhibition zone) value was observed for CC1=C(O)C(=O)C=C2C1=CC=C1[C@@]2(C)CC[C@@]2(C)[C@@H]3C[C@@H](C)C(=O)C[C@]3(C)CC[C@]12C [TINGENONE] ?
**Result** 325
